Test system: Sonic hedgehog protein (Shh)
PROCEDURE SUMMARY: Sonic hedgehog microarray binding compounds – biochemical, small-molecule microarray, 635/667 nm fluorescence, primary screen (AID 1151);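 note: Shh protein binding to compounds spotted on small-molecule microarray slides; score combines spot fluorescence intensity with signal-to-noise across triplicate slides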
MEASUREMENT SETUP: 635 nm fluorescence, higher = more signal
So I've got a bunch of compounds here, and I need their composite z-score values.
Give the figure only, with no unit attached.

Query: Param request: composite z-score | system Sonic hedgehog protein (Shh) | item `COCC(=C=CC[C@H](O)c1ccc(CO)o1)CCO`
Response: 1.99

Query: For Sonic hedgehog protein (Shh), give composite z-score of the listed compound: `COc1ccc([Si](C)(C)[C@@H]2[C@@H](CC(=O)N3CCC[C@H]3CO)O[C@]3(C(=O)N(Cc4cccc(N5C(=O)COc6ccccc65)c4)c4ccccc43)[C@H]2C)cc1`
Response: 1.12

Query: Report composite z-score under test system Sonic hedgehog protein (Shh) for `COCC(=C=CC[C@H](O)c1ccccc1OCCO)C[C@H](O)c1ccccn1` .
Response: 0.43

Query: Please report the measured composite z-score for `C=CCNC(=O)[C@H]1[C@@H]2C(=O)O[C@@H](c3ccccc3)[C@@H](c3ccccc3)N2[C@@H](c2ccccc2OCCO)[C@]12C(=O)N(C(=O)OCCOC)c1ccc(C#CC3(O)CCCCCC3)cc12` tested on Sonic hedgehog protein (Shh).
Response: 1.57

Query: Under Sonic hedgehog protein (Shh), report composite z-score for `CCOC(=O)C[C@H]1[C@H](OC(=O)Cc2ccc3c(c2)OCO3)[C@@H](NC(=O)c2ccc3ccccc3n2)c2cc(OCCCO)ccc2N1C(=O)c1ccccc1`
Response: 0.826

Query: System Sonic hedgehog protein (Shh). Read-out composite z-score. Item `O=c1cccc(-c2ccc([N+](=O)[O-])cc2)o1` . Report value.
Response: 2.19

Query: For Sonic hedgehog protein (Shh), give composite z-score of the listed compound: CS(=O)(=O)CCOC(=O)C1=CC(c2ccc(CO)cc2)=CC(C2CC2)N(Cc2sc3ccccc3c2Cl)C=C1C(=O)OCCS(C)(=O)=O (stereo not drawn)
Response: 1.23

Query: For Sonic hedgehog protein (Shh), give composite z-score of the listed compound: CCCCCN1CC=CC23O[C@@H]4/C=C\CCC(C)OC(=O)C4[C@H]2C(=O)N(C(CO)C(C)C)[C@@H]3C1=O (stereo partly drawn)
Response: 0.866

###

Consider the following molecules; for each one, report its z-score.
PROCEDURE SUMMARY: Pseudomonas biofilm growth suppression – PAO1 strain, BacTiter-Glo luminescence, LB-PBS, primary screen (AID 1144)
MEASUREMENT SETUP: P. aeruginosa PAO1 biofilm, 12 h, higher = more signal
The source made the active and inactive calls. No rule for the calls is given here.

Query: Answer with the recorded z-score for the molecule listed here: `CC[C@@H]1C=C(C(=O)O)[C@H](c2ccc(C#N)cc2)N1S(=O)(=O)c1ccc(C)cc1`
Response: 0.24 (inactive)

Query: Indicate its recorded z-score; the molecule in question is CC(CO)N1C(=O)[C@]2(C)C3C(=O)OCCC/C=C\[C@H]3OC23C=CCN(c2ccc(Cl)cc2)C(=O)[C@@H]13 (stereo partly specified)
Response: -1.53 (inactive)

Query: Return z-score for the following molecule: `CO[C@H]1O[C@H](CO)[C@@H](OC(=O)Nc2ccc(Br)cc2)[C@@H]2OC(=O)[C@@H](Cc3ccccc3)C/C=C/C[C@H](Cc3ccccc3)C(=O)O[C@@H]12`
Response: -0.435 (inactive)

Query: Recall and state the measured z-score for `CCCC[C@@H](O)C1=C(COC)C[C@H]2C(=O)N(Cc3ccccc3)C(=O)[C@H]2[C@H]1CO` .
Response: 0.102 (inactive)

Query: Provide one value: measured z-score of `CCC#CCN(Cc1ccccc1Br)[C@H](/C=C/C1CC1)[C@@H](O)Cc1ccccc1`
Response: -1.23 (inactive)

Query: # return recorded z-score for input CN(C)c1ccc(C(O)C2C=CC3C(=O)NC(=O)C3N2Nc2ccccn2)cc1 (stereo unspecified)
Response: 0.161 (inactive)

Query: Determine its reported z-score: `CO[C@H]1O[C@H](CO)[C@@H](OC(=O)Nc2ccc3c(c2)OCO3)[C@H](OC(=O)Nc2ccc3c(c2)OCO3)[C@@H]1OC(=O)Nc1ccc2c(c1)OCO2`
Response: 0.506 (inactive)

Query: # return recorded z-score for entry `CN(C)C(=O)[C@@]1(Cc2ccccc2CN=[N+]=[N-])N=C(c2ccc(OCCCO)cc2)O[C@H]1c1ccccc1N=[N+]=[N-]`
Response: -0.638 (inactive)

Query: For CCN(CC)c1ccc(N2CC=CC34O[C@@H]5/C=C\CCCOC(=O)C5[C@H]3C(=O)N(C(C)CO)[C@@H]4C2=O)cc1 (stereo partly specified) , write its z-score.
Response: -1.6 (inactive)

Query: Report z-score, nothing else, for this molecule: Cc1ccc(C(C)CC(O)C2C=CC3C(=O)N(c4ccccc4)C(=O)C3N2Nc2ccccc2)o1 (stereo unspecified)
Response: -0.443 (inactive)

Query: Query z-score for `CCCNC(=O)[C@@H]1c2ccccc2C(=O)N(Cc2ccc(OC(F)(F)F)cc2)[C@H]1c1ccc(CO)cc1`
Response: 0.256 (inactive)

Query: In one line, give reported z-score of the entry `C=C(/C(=C/C[C@H](OC(=O)c1ccncc1)c1ccc(CO)o1)c1cnc2ccccc2c1)C(C)C` .
Response: -0.747 (inactive)

Query: Check the records and state z-score for `CC(C)(C)OC(=O)COc1cccc(C(=O)CCN2CCOCC2)c1`
Response: 2.34 (inactive)

Query: Specify measured z-score for `COCCOC(=O)N1C(=O)[C@@]2(c3cc(C#CCNC(N)=O)ccc31)[C@H](C(N)=O)[C@H]1C(=O)O[C@H](c3ccccc3)[C@H](c3ccccc3)N1[C@@H]2c1ccccc1OCCO` .
Response: -0.0139 (inactive)

Query: Give the value of z-score reported for the following: `CCCN1C(=O)[C@@]2(Cc3ccccc31)N=C(c1ccc(OCCCO)cc1)O[C@H]2c1ccccc1`
Response: 0.849 (inactive)

Query: Answer with the recorded z-score of `O=C1[C@H]2C=C(I)[C@H](C[C@@H]2OCCOCCO)[C@@]12CO2` only.
Response: -0.0471 (inactive)

###

PROCEDURE SUMMARY: growth of efflux-deficient E. coli DRC39 – strain DRC39, OD650, 24 h, E. coli filamentation inducers, primary screen (AID 1178);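 note: growth measured as culture turbidity by optical density at 650 nm; test concentration not given here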
MEASUREMENT SETUP: E. coli DRC39 acrAB, higher = more signal, called active from +8 up or from −8 down
What z-score was measured for each of the following?
Form: value (number only, do not type unit).

Query: Please report z-score for the following compound: `Cc1ccc(S[C@]2(C(=O)NCC(F)(F)F)CC(=O)N(Cc3cc(C(F)(F)F)cc(C(F)(F)F)c3)[C@@H]2c2ccc(CO)cc2)cc1`
Response: -0.362

Query: For the compound `COc1ccc([Si](C)(C)[C@@H]2[C@@H](CC(=O)N3CCC[C@H]3CO)O[C@]3(C(=O)N(Cc4cccc(N5C(=O)COc6ccccc65)c4)c4ccccc43)[C@H]2C)cc1` , give its reported z-score.
Response: 0.719

Query: Retrieve z-score measured for `Cc1ccc(N2C(=O)c3ccccc3[C@@H](C(=O)NCCCN(C)C)[C@@H]2c2ccc(CO)cc2)nc1` and print it.
Response: -0.152

###

STUDY TARGET: Calmodulin-1 (Homo sapiens)
PROCEDURE SUMMARY: small molecules binding calmodulin-1 with EGTA – biochemical, small-molecule microarray, Cy5-labelled CALM1, profiling panel (AID 1111);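 note: labelled calmodulin applied in Tris saline Tween buffer holding calcium plus EGTA and DTT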
MEASUREMENT SETUP: Cy5-CALM1 binding fluorescence, higher = more signal
ATTRIBUTE MEASURED: composite z-score
Give the figure only, with no unit attached.

Query: Quote composite z-score reported for `C#CCN([C@@H](Cc1ccccc1)C(=O)OC)[C@@H](/C=C/C1CC1)[C@H](O)Cc1ccccc1` please.
Response: -0.979

Query: Please report composite z-score for the following compound: `CCOC(=O)[C@@H]1CCCCN1C(=O)C(=O)OC`
Response: -0.499

Query: State its composite z-score: `CCOC(=O)C[C@H]1[C@H](OC(=O)Cc2ccc3c(c2)OCO3)[C@@H](NC(=O)C2CCCCC2)c2cc(OCCCO)ccc2N1C(=O)c1ccccc1`
Response: 0.379

Query: Provide composite z-score value for the following compound: `COc1ccc(CCNC(=O)[C@@]2(c3ccc([N+](=O)[O-])cc3)CC(=O)N(C3CCCCC3)[C@@H]2c2ccc(CO)cc2)cc1`
Response: 0.36

Query: Find the measured composite z-score of `CN(C)C(=O)[C@@]1(Cc2ccccc2)N=C(c2ccc(OCCCO)cc2)O[C@H]1c1ccccc1` and report it.
Response: 1.58

Query: Consider the compound `CCOC(=O)C=Cc1cccc(C)c1O` . State its measured composite z-score.
Response: -0.122

Query: Provide only the value of recorded composite z-score for `O=C1N(Cc2ccccc2)c2ccccc2C[C@]12N=C(c1ccc(OCCCO)cc1)O[C@@H]2c1ccccc1`
Response: 0.51

Query: Determine from records and report composite z-score for `CC[C@@H]1C=C(C(=O)O)[C@H](c2ccc(C#N)cc2)N1S(=O)(=O)c1ccc(C)cc1`
Response: 1.45

Query: For the compound `COC(=O)[C@@]1(Cc2ccc(F)cc2)[C@H]2c3cc(C(=O)N4CCCC4)n(CCc4c[nH]c5ccccc45)c3C[C@H]2CN1C(=O)c1ccccc1` , give its reported composite z-score.
Response: 1.45

Query: Entry `CCCC[C@@H]1C[C@H]1[C@@H](NC(=O)c1cccs1)c1ccccc1C(F)(F)F` needs its composite z-score filled in; supply it.
Response: 1.72

Query: Please give measured composite z-score of the following entry: `COCC(=C=CC[C@H](O)c1ccccc1OCCO)C[C@H](O)c1ccccn1`
Response: -0.0135

Query: Give the measured composite z-score for COc1cc2c(cc1O)C(c1cccs1)N(Cc1cc3c(cc1Br)OCO3)CC2 (stereo unspecified)
Response: 1.88

Query: Please report composite z-score for the following compound: C=CCC(OC(C)=O)[C@@H]1[C@@H](N(Cc2ccc(-c3cccc(C(F)(F)F)c3)o2)C(=O)c2ccc(-c3ccccc3)cc2)c2cc(OCCCO)ccc2N1C(=O)Cc1ccc2ccccc2c1 (stereo partly specified)
Response: -0.248

Query: Fill in composite z-score for record CC(=O)N1CC2(CC2)CC1c1ccccc1 (stereo unspecified)
Response: 0.107

Query: // Input: CC1CC/C=C\[C@H]2OC34C=CCN(c5ccc6ccccc6c5)C(=O)[C@H]3N(CCCO)C(=O)[C@@H]4C2C(=O)O1 (stereo partly specified) . Output its composite z-score only.
Response: -0.568

Query: Entry `COC(=O)C(CC#Cc1ccc2c(c1)[C@]1(C(=O)N2)[C@H](c2ccc(O)cc2)N2[C@H](c3ccccc3)[C@H](c3ccccc3)OC(=O)[C@H]2[C@@H]1C(=O)NC[C@H](O)c1ccccc1)C(=O)OC` needs its composite z-score filled in; supply it.
Response: 0.175
